Molecular target: UniProtKB P08473
measured.endpoint: IC50 (nM)

O=C(O)[C@H](Cc1ccc(-c2ccccc2)cc1)NC(=O)[C@H](Cc1ccc2ccccc2c1)NCP(=O)(O)O = 282

a = O=C(O)[C@H](Cc1ccc(-c2ccccc2)cc1)NC(=O)[C@H](Cc1ccccc1)NCP(=O)(O)O
b = O=C(O)[C@H](Cc1ccc(-c2ccccc2)cc1)NC(=O)[C@H](Cc1ccc(O)cc1)NCP(=O)(O)O
c = C[C@H](NCP(=O)(O)O)C(=O)N[C@@H](Cc1ccc(-c2ccccc2)cc1)C(=O)O
Sort (3 compounds) by IC50: min first. Please write the labels in the order that was asked for.
a, b, c
(a: 35 nM, b: 226 nM, c: 1000 nM)

====

pIC50: −log10 of the molar value.
Data export: pIC50 values recorded with UniProt:P12821.
Sequence (P12821 whole entry): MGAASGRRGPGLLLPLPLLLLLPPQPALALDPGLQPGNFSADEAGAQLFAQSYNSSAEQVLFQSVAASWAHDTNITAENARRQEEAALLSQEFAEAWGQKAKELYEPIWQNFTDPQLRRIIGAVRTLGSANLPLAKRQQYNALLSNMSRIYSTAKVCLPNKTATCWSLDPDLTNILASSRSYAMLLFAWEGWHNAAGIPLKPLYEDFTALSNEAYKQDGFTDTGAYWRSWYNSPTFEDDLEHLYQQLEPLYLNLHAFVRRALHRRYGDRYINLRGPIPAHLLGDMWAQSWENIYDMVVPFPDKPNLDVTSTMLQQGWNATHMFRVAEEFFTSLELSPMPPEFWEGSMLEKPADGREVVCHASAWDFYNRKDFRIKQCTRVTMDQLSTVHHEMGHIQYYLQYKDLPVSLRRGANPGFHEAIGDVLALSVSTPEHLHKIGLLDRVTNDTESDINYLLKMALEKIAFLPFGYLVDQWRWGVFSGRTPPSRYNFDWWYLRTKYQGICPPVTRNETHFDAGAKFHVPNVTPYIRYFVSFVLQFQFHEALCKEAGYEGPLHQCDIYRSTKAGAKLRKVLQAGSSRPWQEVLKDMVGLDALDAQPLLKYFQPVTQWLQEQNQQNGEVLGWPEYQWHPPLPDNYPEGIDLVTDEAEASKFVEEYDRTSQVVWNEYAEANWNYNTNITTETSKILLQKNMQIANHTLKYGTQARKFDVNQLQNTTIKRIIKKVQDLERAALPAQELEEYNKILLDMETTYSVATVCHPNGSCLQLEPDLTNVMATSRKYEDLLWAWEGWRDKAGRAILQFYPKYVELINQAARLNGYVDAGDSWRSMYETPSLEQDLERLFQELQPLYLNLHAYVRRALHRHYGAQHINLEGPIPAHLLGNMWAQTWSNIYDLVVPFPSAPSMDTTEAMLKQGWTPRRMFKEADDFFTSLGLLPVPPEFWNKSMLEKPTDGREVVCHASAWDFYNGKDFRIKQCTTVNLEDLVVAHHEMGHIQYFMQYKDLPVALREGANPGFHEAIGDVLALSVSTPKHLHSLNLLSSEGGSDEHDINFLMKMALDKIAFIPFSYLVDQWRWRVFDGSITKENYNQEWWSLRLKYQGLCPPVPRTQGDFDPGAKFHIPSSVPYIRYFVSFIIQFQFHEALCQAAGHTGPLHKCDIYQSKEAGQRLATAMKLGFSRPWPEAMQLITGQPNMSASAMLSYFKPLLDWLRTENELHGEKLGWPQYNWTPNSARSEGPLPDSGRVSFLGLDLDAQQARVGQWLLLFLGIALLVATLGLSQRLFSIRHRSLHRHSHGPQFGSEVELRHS
measured.endpoint: pIC50

O=C(O)[C@H](Cc1ccc(-c2ccccc2)cc1)NC(=O)[C@H](Cc1cccs1)NCP(=O)(O)O = 6.41
CC(C)[C@H](NCP(=O)(O)O)C(=O)N[C@@H](CCc1ccccc1)C(=O)O = 7.00
COc1ccccc1C[C@H](NCP(=O)(O)O)C(=O)N[C@@H](Cc1ccc(-c2ccccc2)cc1)C(=O)O = 6.80
C[C@H](N[C@@H](Cc1ccccc1)C(=O)N[C@@H](Cc1ccc(-c2ccccc2)cc1)C(=O)O)P(=O)(O)O = 7.36

P = CC[C@H](C)C(NCC(=O)O)C(=O)N[C@@H](Cc1ccc(-c2ccccc2)cc1)C(=O)O (stereo not given in full)
Q = C[C@H](O)[C@H](NCP(=O)(O)O)C(=O)N[C@@H](Cc1ccc(-c2ccccc2)cc1)C(=O)O
R = CC(C)[C@H](NCP(=O)(O)O)C(=O)N[C@@H](Cc1c[nH]c2ccccc12)C(=O)O
S = C[C@H](c1ccccc1)[C@H](NCP(=O)(O)O)C(=O)N[C@@H](Cc1ccc(-c2ccccc2)cc1)C(=O)O
Ascending sort, pIC50. # list labels per requested ordering
Q, R, S, P
(Q: 6.18, R: 6.62, S: 6.86, P: 7.19)

====

Here we list molecules with their recorded IC50 when tested on Neprilysin (Homo sapiens).
Sequence (P08473 whole entry): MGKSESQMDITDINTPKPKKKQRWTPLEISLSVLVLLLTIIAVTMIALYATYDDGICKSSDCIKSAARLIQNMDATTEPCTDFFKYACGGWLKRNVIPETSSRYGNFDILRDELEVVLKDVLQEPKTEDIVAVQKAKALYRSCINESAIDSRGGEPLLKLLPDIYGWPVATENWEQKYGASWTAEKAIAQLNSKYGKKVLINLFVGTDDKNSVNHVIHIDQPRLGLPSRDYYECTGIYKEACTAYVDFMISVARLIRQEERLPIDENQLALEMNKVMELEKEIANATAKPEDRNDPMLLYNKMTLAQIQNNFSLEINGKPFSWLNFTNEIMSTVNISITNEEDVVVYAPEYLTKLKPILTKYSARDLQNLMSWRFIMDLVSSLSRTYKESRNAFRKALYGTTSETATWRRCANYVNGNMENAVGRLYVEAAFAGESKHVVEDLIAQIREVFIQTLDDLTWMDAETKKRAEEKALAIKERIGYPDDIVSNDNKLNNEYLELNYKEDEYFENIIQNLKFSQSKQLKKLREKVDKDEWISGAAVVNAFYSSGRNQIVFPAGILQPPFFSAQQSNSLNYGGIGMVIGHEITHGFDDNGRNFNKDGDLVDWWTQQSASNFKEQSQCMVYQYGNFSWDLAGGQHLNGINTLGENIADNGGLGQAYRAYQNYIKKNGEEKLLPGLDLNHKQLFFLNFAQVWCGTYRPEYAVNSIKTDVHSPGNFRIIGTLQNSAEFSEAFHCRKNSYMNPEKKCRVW
measured.endpoint: IC50 (nM)

# example entries with known answers
CC(C)[C@H](NCP(=O)(O)O)C(=O)N[C@@H](Cc1ccc(-c2ccccc2)cc1)C(=O)O = 3
C[C@H](N[C@@H](Cc1ccccc1)C(=O)N[C@@H](Cc1ccc(-c2ccccc2)cc1)C(=O)O)P(=O)(O)O = 171
O=C(O)[C@H](Cc1ccc(-c2ccccc2)cc1)NC(=O)[C@H](Cc1ccc2c(c1)OCO2)NCP(=O)(O)O = 48
CC(C)[C@H](NCP(=O)(O)O)C(=O)N[C@@H](Cc1ccc(-c2ccccc2)cc1)C(=O)N[C@@H](Cc1ccc(O)cc1)C(=O)O = 4
CC(C)[C@H](N[C@@H](C)C(=O)O)C(=O)N[C@@H](Cc1ccc(-c2ccccc2)cc1)C(=O)O = 735

a = CC(C)[C@H](NCP(=O)(O)O)C(=O)N[C@@H](Cc1ccc(-c2ccccc2)cc1)C(=O)N1C[C@H](O)C[C@H]1C(=O)O
b = O=C(O)[C@H](Cc1ccc(-c2ccccc2)cc1)NC(=O)[C@H](Cc1ccc(-c2ccccc2)cc1)NCP(=O)(O)O
a or b : whose IC50 is greater? // return label of chosen record
b

====

Measured IC50 (Neprilysin (Homo sapiens))
measured.endpoint: IC50 (nM)

I = CC(C)C[C@H](NCP(=O)(O)O)C(=O)N[C@@H](Cc1ccc(-c2ccccc2)cc1)C(=O)O
II = CC[C@@H](C)[C@H](NCP(=O)(O)O)C(=O)N[C@@H](Cc1ccc(-c2ccccc2)cc1)C(=O)O
From the recorded data, which exceeds the other in IC50: I or II ? Please reply using the label of the selected record.
I
